# System: TGF-b induced Endothelin-1 production
# experiment-description: ET-1 assay: inhibitory effect on TGF-b induced endothelin-1 production
# Assay type: cell-based
# condition-label: Homo sapiens, Fibroblast; fibroblasts, stimulant (TGFb, serum, LPA etc), ET-1 in media by ELISA, 4-parameter fit
pEC50: −log10 of the molar value.
readout-name: pEC50

Give the reported value of pEC50 for this record: Cc1cc(=O)n(-c2cccc(C(F)(F)F)c2)cc1-c1cnn(C)c1 [Compound 226]
< 3.70

Give the reported value of pEC50 for this record: Cc1n[nH]c(C)c1-c1ccc(=O)n(-c2ccc(F)cc2)c1 [Compound 379]
< 3.70

Give the reported value of pEC50 for this record: Cn1cc(-c2cn(-c3ccc(OC(F)(F)F)cc3)c(=O)cc2NCc2c(Cl)cccc2Cl)cn1 [Compound 132]
< 3.70

Give the reported value of pEC50 for this record: COc1cc(-n2cc(-c3cn[nH]c3)c(C)cc2=O)cc(OC)c1OC [Compound 220]
< 3.70

Give the reported value of pEC50 for this record: Cc1n[nH]c(C)c1-c1ccc(=O)n(-c2ccc(OC(C)C)cc2)c1 [Compound 382]
3.70 to 4.30

Give the reported value of pEC50 for this record: O=C(Nc1cc(=O)n(-c2ccc(OC(F)(F)F)cc2)cc1-c1ccc(F)cc1)Oc1ccccc1 [Compound 113]
< 3.70

Give the reported value of pEC50 for this record: O=c1ccc(C2CCC2)cn1-c1ccccc1 [Compound 65]
< 3.70

Give the reported value of pEC50 for this record: CCn1c(=O)oc2c(-c3cn(-c4ccc(OC(F)(F)F)cc4)c(=O)cc3C)cccc21 [Compound 556]
< 3.70

Give the reported value of pEC50 for this record: Cn1cc(-c2cn(-c3ccc(OC(F)(F)F)cc3)c(=O)c3c2ccn3CCO)cn1 [Compound 614]
> 4.30

Give the reported value of pEC50 for this record: Cn1cc(-c2cn(-c3ccc(OC(F)(F)F)cc3)c(=O)cc2OCCN2CCOCC2=O)cn1 [Compound 150]
3.70 to 4.30

Give the reported value of pEC50 for this record: CNC(=O)Nc1cccc(-n2cc(-c3ccc(F)cc3)c(C)cc2=O)c1 [Compound 419]
3.70 to 4.30

Give the reported value of pEC50 for this record: Cn1cc(-c2cn(-c3ccc(OC(F)(F)F)cc3)c(=O)c3c2nnn3CCF)cn1 [Compound 684]
3.70 to 4.30

Give the reported value of pEC50 for this record: COc1ccc(-n2cc(-c3cn[nH]c3)ccc2=O)cc1 [Compound 370]
< 3.70

Give the reported value of pEC50 for this record: CC(=O)c1ccc(=O)n(-c2ccc(F)cc2)c1 [Compound 13]
< 3.70

Give the reported value of pEC50 for this record: CCn1cc(-c2cn(-c3ccc(OC(F)(F)F)cc3)c(=O)c3c2ncn3CC)cn1 [Compound 670]
> 4.30

Give the reported value of pEC50 for this record: CCOc1ccc(-n2cc(-c3cnn(C)c3)c(NCc3ccccc3)cc2=O)c(C)c1 [Compound 543]
> 4.30

Give the reported value of pEC50 for this record: COc1cc(-n2cc(-c3ccc(F)cc3)c(C)cc2=O)cc(OC)c1OC [Compound 180]
3.70 to 4.30

Give the reported value of pEC50 for this record: O=c1ccc(-c2ccc(F)cc2)nn1-c1ccc(OC(F)(F)F)cc1 [Compound 362]
< 3.70
